This collection of values is drawn from paper PMC10397247.

Field: interaction score. Provide a value for each of the binders that follow.
- Study system: T1, 4H971-AA
- T1 chain: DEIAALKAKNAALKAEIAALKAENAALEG
- Assay name: two-hybrid library CCmax;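 further: natural log of median RNA to DNA barcode read ratio; higher means stronger binding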
- Protocol conditions: mean of both orientations
Reply briefly: the number, and no unit.

Query: Bench note: what interaction score did DKNAALEAKIAALKAKNAALEAKIAALKG [4H3446-AA] show?
Result: -1.14

Query: Bench note: what interaction score did DEIAALEAKNAALEAEIAALEAKNAALEG [4H391-AA] show?
Result: -1.02

Query: Bench note: what interaction score did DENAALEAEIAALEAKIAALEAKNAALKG [4H1064-AA] show?
Result: -1.08
